Measured pIC50, listed per entry.
- measured target: human chemokine receptor 2 isoform B (Homo sapiens, UniProt P41597)
- Sequence (P41597 1-360 isoform P41597-2): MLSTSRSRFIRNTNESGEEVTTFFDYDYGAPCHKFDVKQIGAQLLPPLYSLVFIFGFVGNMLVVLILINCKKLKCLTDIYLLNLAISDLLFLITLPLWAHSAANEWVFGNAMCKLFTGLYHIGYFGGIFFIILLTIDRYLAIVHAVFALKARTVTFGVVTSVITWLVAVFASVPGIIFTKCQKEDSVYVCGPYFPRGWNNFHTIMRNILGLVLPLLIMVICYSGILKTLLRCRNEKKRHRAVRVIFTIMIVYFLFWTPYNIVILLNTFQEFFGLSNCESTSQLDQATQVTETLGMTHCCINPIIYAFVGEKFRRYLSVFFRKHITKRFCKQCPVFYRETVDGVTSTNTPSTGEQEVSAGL
- test description: Calcium mobilization assay (FLIPR, CHOK1-CCR2B-A5 cells, 20 nM MCP-1)
- condition parameters: Ca mobilisation assay, CCR2, antagonist activity vs 20 nM MCP-1
pIC50: −log10 of the molar value.
assay metric: pIC50

CC1(O)CCCN(CCCN2CCN(C(=O)/C=C/c3ccc(F)c(Cl)c3)CCC2=O)C1 (racemic) :: 6.49
CC1(C)CN(CC(O)CN2CCN(C(=O)/C=C/c3ccc(Cl)c(Cl)c3)CCC2=O)CCC1O (racemic) :: 6.67
O=C(/C=C/c1cccc(Cl)c1)N1CCC(=O)N(CCCN2CCCCC2)CC1 :: 5.87
COCC1CCN(CCCCN2CCN(C(=O)/C=C/c3ccc(Cl)c(Cl)c3)CCC2=O)CC1 :: 7.49
